# target: Sterol 24-C-methyltransferase (Yarrowia lipolytica)
# Sequence (whole entry): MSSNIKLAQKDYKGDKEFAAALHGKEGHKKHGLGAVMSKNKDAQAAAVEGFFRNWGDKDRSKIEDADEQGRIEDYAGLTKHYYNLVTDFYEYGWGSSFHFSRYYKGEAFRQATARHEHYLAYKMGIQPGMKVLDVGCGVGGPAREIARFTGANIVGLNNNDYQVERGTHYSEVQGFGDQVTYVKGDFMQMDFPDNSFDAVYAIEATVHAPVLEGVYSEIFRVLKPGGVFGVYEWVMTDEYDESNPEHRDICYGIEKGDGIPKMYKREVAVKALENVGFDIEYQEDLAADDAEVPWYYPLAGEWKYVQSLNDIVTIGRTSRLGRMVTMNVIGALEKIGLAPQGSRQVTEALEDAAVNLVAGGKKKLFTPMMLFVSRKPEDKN
# experiment.description: Inhibition of Yarrowia lipolytica 24-SMT assessed as cholesta-5,7,24-trien-3-trimethylsilyl derivative at 2 ug/mL after 48 hrs by GC-MS analysis relative to untreated control
# Parameters: scale not given: the % may be the effect or the level left
measure.name: Activity

1. CNC[C@@H](C)[C@H]1CC[C@H]2C3=CC[C@H]4C[C@@H](O)CC[C@]4(C)[C@H]3CC[C@]12C
40.4%

Query: // query Activity value for entry CCCC[S+](C)C[C@@H](C)[C@H]1CC[C@H]2C3=CC[C@H]4C[C@@H](O)CC[C@]4(C)[C@H]3CC[C@]12C.[I-] (mixture of isomers)
Result: 87.5%

Query: Also, "C[C@H](CNCCCN(C)C)[C@H]1CC[C@H]2C3=CC[C@H]4C[C@@H](O)CC[C@]4(C)[C@H]3CC[C@]12C" please.
Result: 25.6%

Query: Also, "C[C@H](CNCCN1CCCC1)[C@H]1CC[C@H]2C3=CC[C@H]4C[C@@H](O)CC[C@]4(C)[C@H]3CC[C@]12C" please.
Result: 46.6%

====

Readings of Activity for the listed compounds
# target: Sterol 24-C-methyltransferase (Yarrowia lipolytica)
# experiment.description: Inhibition of Yarrowia lipolytica 24-SMT assessed as dehydroergosterol-3-trimethylsilyl derivative at 0.2 ug/mL after 48 hrs by GC-MS analysis relative to untreated control
# Design: scale not given: the % may be the effect or the level left
Please provide the amount together with its unit, number first.

Solved cases below.
1. CC(=O)N1CCN(c2ccc(OCC3COC(Cn4ccnc4)(c4ccc(Cl)cc4Cl)O3)cc2)CC1 (stereo not given) [KETOCONAZOLE]
59.1%
2. C[C@H](/C=C/c1cccc[n+]1C)[C@H]1CC[C@H]2C3=CCC4C[C@@H](O)CC[C@]4(C)[C@H]3CC[C@]12C.[I-] (stereo not given in full)
7%

Query: Test system Sterol 24-C-methyltransferase (Yarrowia lipolytica); read-out Activity; what value for "CCCCN(C)C[C@@H](C)[C@H]1CC[C@H]2C3=CC[C@H]4C[C@@H](O)CC[C@]4(C)[C@H]3CC[C@]12C" ?
Result: 37.4%

Query: Also, "CCNC[C@@H](C)[C@H]1CC[C@H]2C3=CC[C@H]4C[C@@H](O)CC[C@]4(C)[C@H]3CC[C@]12C" please.
Result: 64.7%

Query: Also, CC(C)C(C)NC[C@@H](C)[C@H]1CC[C@H]2C3=CC[C@H]4C[C@@H](O)CC[C@]4(C)[C@H]3CC[C@]12C (mixture of isomers) please.
Result: 73.3%
